- Tested on: MCF-7 cells
- Procedure Text: MTT cytotoxicity assay, MCF-7
- Type: cell-based, human
- Condition Description: 72 h
- Method: Moreover, to investigate the activity of synthesized complexes as potential anticancer agents, their cytotoxicity toward a series of human cancer cell lines and a non-cancer cell line (HaCaT) was evaluated using the MTT assay. […] In addition, we also determined the cytotoxic activity of free ligands toward selected cancer cells. […] However, this effect depends on the cell line. […] The best values of cytotoxic activity of compounds have been obtained after 72 h of cell incubation. […]
Measurement Label: pIC50
Conceptually, pIC50 converts a concentration in mol/L into minus its log10.

Missing value: pIC50, MCF-7 cells, entry N.N.[Cl][Pt][Cl] [Cisplatin, reference compound] . Fill in?
4.19

Missing value: pIC50, MCF-7 cells, entry CCN(CC)C[P+](c1ccccc1)(c1ccccc1)[Ir-3]([Cl])([Cl])[C]1(C)C(C)=C(C)C(C)=C1C [1a, Ir(η^5-Cp*)Cl2Ph2PCH2N(CH2CH3)2] . Fill in?
4.07

Missing value: pIC50, MCF-7 cells, entry CCCCN(CCCC)C[P+](c1ccccc1)(c1ccccc1)[Ir-3]([Cl])([Cl])[C]1(C)C(C)=C(C)C(C)=C1C [2a, Ir(η^5-Cp*)Cl2Ph2PCH2N(CH2CH2CH2CH3)2] . Fill in?
4.25

* * *

- Test system: PANC-1 cells
- Procedure Text: MTT cytotoxicity assay, PANC-1
- Assay type: cell-based, human
- Condition Description: 48 h
I'd be grateful if you could share measured IC50 for these entries.
Remember to follow the number with its unit.

Any idea what IC50 was measured for CCCCN(CCCC)C[P+](c1ccccc1)(c1ccccc1)[Ir-3]([Cl])([Cl])[C]1(C)C(C)=C(C)C(C)=C1C ?
198 µM

Any idea what IC50 was measured for N.N.[Cl][Pt][Cl] [Cisplatin, reference compound] ?
131 µM

Any idea what IC50 was measured for CCN(CC)C[P+](c1ccccc1)(c1ccccc1)[Ir-3]([Cl])([Cl])[C]1(C)C(C)=C(C)C(C)=C1C ?
204 µM

Any idea what IC50 was measured for CCNCC ?
305 µM

* * *

- System: A549 cells
- Procedure Text: MTT cytotoxicity assay, A549
- Assay type: cell-based, human
- Condition Description: Homo sapiens, A549, 72 h
Measurement Label: IC50 (µM)
Output spec: scalar in µM, unitless text.

Any idea what IC50 was measured for CCN(CC)CP(c1ccccc1)c1ccccc1 ?
183

Any idea what IC50 was measured for CCCCN(CCCC)CP(c1ccccc1)c1ccccc1 ?
158

* * *

- System: A549 cells
- Procedure Text: MTT cytotoxicity assay, A549
- Format: cell-based, human
- Condition Description: 72 h
Measurement Label: IC50

Any idea what IC50 was measured for CCN(CC)C[P+](c1ccccc1)(c1ccccc1)[Ir-3]([Cl])([Cl])[C]1(C)C(C)=C(C)C(C)=C1C ?
12 µM

Any idea what IC50 was measured for N.N.[Cl][Pt][Cl] [Cisplatin, reference compound] ?
11 µM

Any idea what IC50 was measured for CCNCC ?
> 1000 µM

Any idea what IC50 was measured for CCCCN(CCCC)C[P+](c1ccccc1)(c1ccccc1)[Ir-3]([Cl])([Cl])[C]1(C)C(C)=C(C)C(C)=C1C ?
16 µM
